Target: Asp87Gly mutant S. Typhimurium DNA gyrase (Salmonella typhimurium, UniProt P0A2I3+P37411, D87G)
Sequence (P37411 whole entry D87G, one chain of several): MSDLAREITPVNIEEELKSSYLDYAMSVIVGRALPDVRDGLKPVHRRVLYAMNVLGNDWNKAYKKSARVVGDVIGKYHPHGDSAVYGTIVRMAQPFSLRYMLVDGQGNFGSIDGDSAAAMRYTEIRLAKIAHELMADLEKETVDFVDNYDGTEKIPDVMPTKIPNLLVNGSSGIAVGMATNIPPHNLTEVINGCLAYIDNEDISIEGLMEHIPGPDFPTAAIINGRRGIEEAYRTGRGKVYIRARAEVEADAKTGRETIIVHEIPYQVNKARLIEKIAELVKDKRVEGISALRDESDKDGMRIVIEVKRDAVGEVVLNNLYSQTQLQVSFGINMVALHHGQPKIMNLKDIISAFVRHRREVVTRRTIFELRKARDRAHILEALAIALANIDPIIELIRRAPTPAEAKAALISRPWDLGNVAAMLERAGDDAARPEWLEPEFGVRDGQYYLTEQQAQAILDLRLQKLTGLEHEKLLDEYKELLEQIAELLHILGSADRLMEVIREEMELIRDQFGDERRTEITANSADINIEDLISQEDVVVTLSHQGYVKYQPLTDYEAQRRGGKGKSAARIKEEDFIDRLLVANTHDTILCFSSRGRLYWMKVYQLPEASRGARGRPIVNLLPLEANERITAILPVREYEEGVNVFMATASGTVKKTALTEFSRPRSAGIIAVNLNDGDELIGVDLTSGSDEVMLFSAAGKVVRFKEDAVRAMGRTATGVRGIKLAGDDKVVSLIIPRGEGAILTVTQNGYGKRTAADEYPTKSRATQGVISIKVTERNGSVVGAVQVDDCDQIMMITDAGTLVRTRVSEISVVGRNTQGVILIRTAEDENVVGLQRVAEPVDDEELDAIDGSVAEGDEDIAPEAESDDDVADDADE
Assay: Fluoroquinolone-inhibited DNA supercoiling assay, GyrA Asp87Gly DNA gyrase
Procedure: Recombinant DNA gyrase was obtained as separate subunits, GyrA and GyrB. […] The protein purity was assessed by sodium dodecyl sulfate-polyacrylamide gel electrophoresis (SDS-PAGE) (ATTO, Tokyo, Japan) as shown in Fig. 7. […]
observable: pIC50
pIC50 is defined as minus the log10 of a concentration measured in mol/L.

{"molecule-smiles": "Nc1nc(-n2cc(C(=O)O)c(=O)c3cc(F)c(N4CC(O)C4)c(Cl)c32)c(F)cc1F", "pIC50": 7.26}
{"molecule-smiles": "Cc1c(N2CC(NC(C)C)C2)c(F)cc2c(=O)c(C(=O)O)cn(-c3nc(N)c(F)cc3F)c12", "pIC50": 7.16}

Consider the additional molecule presented here.
[in] Item under review: `Cc1c(N2CC(O)C2)c(F)cc2c(=O)c(C(=O)O)cn(-c3nc(N)c(F)cc3F)c12` . Reported pIC50?
[out] 7.08
